tested on: HEK-293T; assay: Multiplex assay against HEK293T; assay type: toxicity, cell-based; details: human, 48 h, 10 µM, compound concentration 10 uM, replicate 2
quantity_name: Population Apoptotic (%)

molecule=CCCOc1ccc2[nH]cc(C3=CCNCC3)c2n1.Cl endpoint_value=26
molecule=Cc1cnc(-c2cc(N3CCN(C(=O)CCS(C)(=O)=O)CC3)ncc2Cl)c(C)c1 endpoint_value=36
molecule=CC(=O)Nc1cccc2c1c(Sc1ccc(Cl)cc1)c(C)n2CC(=O)O endpoint_value=33
molecule=NCCc1cn(S(=O)(=O)c2c(Cl)nc3sccn23)c2ccccc12.O=C(O)C(=O)O endpoint_value=78
molecule="CCCCCC(O)/C=C/[C@H]1C(=O)CC(O)C1C/C=C\\CCCC(=O)O (stereo partly drawn)" endpoint_value=51
molecule=C[C@H](N)COC(=O)[C@@H](CCCCN)NC(=O)Cc1c(-c2ccc3ccccc3c2)[nH]c2c1ccc1ccccc12 endpoint_value=32
molecule="Cl.N=C(N)NC(=O)Cc1c(Cl)cccc1Cl [GUANFACINE HYDROCHLORIDE]" endpoint_value=50
molecule=N#Cc1cc(F)cc(-c2nc(-c3ccc(F)cn3)no2)c1 endpoint_value=48
molecule=COc1cccc2c1c(NS(=O)(=O)c1ccc(Cl)s1)nn2Cc1cccc(CNC(=O)C(C)(C)O)c1 endpoint_value=35
molecule=Cc1c(CC(=O)O)c2cccnc2n1Cc1ccc(S(C)(=O)=O)cc1C(F)(F)F endpoint_value=45
molecule=CC(C)(C)c1cc(NC(=O)Nc2ccc(-c3cn4c(n3)sc3cc(OCCN5CCOCC5)ccc34)cc2)no1 endpoint_value=58
molecule=O=C1[C@H](Cc2ccc(O)cc2)N2C(=O)CCN(C(=O)NCc3ccccc3)[C@H]2CN1Cc1cccc2ccccc12 endpoint_value=57
molecule=CCc1cc2cc(NS(=O)(=O)c3ccc(C#N)cc3)ccc2n(CC)c1=O endpoint_value=47
molecule=N#Cc1c(Oc2cccc(OS(=O)(=O)CCCC(F)(F)F)c2)cccc1C(F)(F)F endpoint_value=58
molecule=CCCCC(=O)N(Cc1ccc(-c2ccccc2-c2nnn[nH]2)cc1)[C@H](C(=O)O)C(C)C endpoint_value=15
molecule=Cc1onc(-c2ccccc2Cl)c1C(=O)N(C)c1ccc(Cl)cc1 endpoint_value=20
molecule=CC(C)c1noc(N2CCC(COc3ccc(-c4ccc(S(C)(=O)=O)cc4)nc3)CC2)n1 endpoint_value=30
molecule="Cc1sc2c(c1C)C(c1ccc(Cl)cc1)=N[C@@H](CC(=O)NCCCCCCCCNC(=O)COc1cccc3c1C(=O)N(C1CCC(=O)NC1=O)C3=O)c1nnc(C)n1-2 (stereo partly drawn)" endpoint_value=65
molecule=CN[C@@H](C)C(=O)N[C@H](C(=O)N1CCC[C@H]1C(=O)Nc1snnc1-c1ccccc1)C1CCCCC1 endpoint_value=60
molecule="Br.CS(=O)(=O)Nc1c(O)ccc2c1CCCC2C1=NCCN1 (stereo not drawn)" endpoint_value=48
molecule=COc1ccccc1N1CCN(C[C@@H](C(=O)NC(C)(C)C)c2ccccc2)CC1.Cl.Cl endpoint_value=62
molecule=O=C(CCCc1ccccc1)Nc1nc2ccccc2c(=O)s1 endpoint_value=68
molecule=CC(/C=C1\SC(=S)N(CCCC(=O)Nc2ccc(C(=O)O)c(O)c2)C1=O)=C\c1ccccc1 endpoint_value=39

* * *

system: Fibroblast; assay: Multiplex assay against human fibroblast; format: toxicity, cell-based; settings: 12 h, 1 µM, compound concentration 1 uM, replicate 1
quantity_name: Population Mitotic Cells (%)

compound="CN[C@@H](C)C(=O)N[C@H](C(=O)N1CCC[C@H]1C(=O)Nc1snnc1-c1ccccc1)C1CCCCC1 [GDC-0152]" target_entity=Fibroblast endpoint_value=30
compound="Cc1c(CC(=O)O)c2cccnc2n1Cc1ccc(S(C)(=O)=O)cc1C(F)(F)F [FEVIPIPRANT]" target_entity=Fibroblast endpoint_value=55
compound=CN(C)C(=O)Cn1cc(-c2ccc(-c3cncc4ccccc34)cc2)cn1 target_entity=Fibroblast endpoint_value=52
compound="Cl.N=C(N)NC(=O)Cc1c(Cl)cccc1Cl [GUANFACINE HYDROCHLORIDE]" target_entity=Fibroblast endpoint_value=55
compound="CCCCCC(O)/C=C/[C@H]1C(=O)CC(O)C1C/C=C\\CCCC(=O)O (stereo not given in full)" target_entity=Fibroblast endpoint_value=47
